Test: Displacement of [3H]AMPA from AMPA receptor in rat cortical membrane
Assay type: cell membranes
endpoint: Ki (nM)

Would you please look over these solved cases?
>>> measured_value("O=C(NCCc1ccccc1)Nc1cc2c(cc1Cl)[nH]c(=O)n1nc(C(=O)O)c(C(=O)O)c21")
480
>>> measured_value("O=C(Nc1ccccc1)Nc1cc2c(cc1Cl)[nH]c(=O)n1nc(C(=O)O)c(C(=O)O)c21")
140
>>> measured_value("O=C(O)c1nn2c(=O)[nH]c3cc(Cl)c([N+](=O)[O-])cc3c2c1C(=O)O")
590
>>> measured_value("CCOC(=O)c1nn2c(=O)[nH]c3cc(Cl)c(NC(=O)c4ccccc4C(=O)O)cc3c2c1C(=O)OCC")
2800

[P] CCOC(=O)CCCNC(=O)Nc1cc2c(cc1Cl)[nH]c(=O)n1nc(C(=O)OCC)c(C(=O)OCC)c21
[Q] O=C(O)CNC(=O)Nc1cc2c(cc1Cl)[nH]c(=O)n1nc(C(=O)O)c(C(=O)O)c21
[R] O=C(O)c1nn2c(=O)[nH]c3cc(Cl)c([N+](=O)[O-])cc3c2c1Cl
[S] O=C(O)c1nn2c(=O)[nH]c3cc(Cl)c(-n4cnnc4)cc3c2c1C(=O)O
Qu. Endpoint returns the given compounds ordered by ascending Ki. API: response body holds the labels in the requested order.
Ans. S, Q, R, P
(S: 100 nM, Q: 480 nM, R: 1300 nM, P: 3500 nM)

----------
Organism: Rattus norvegicus
Assay: Displacement of [3H]kainate from KA receptor in rat cortical membrane at 100 uM
Format: cell membranes
endpoint: Activity (%)

>>> measured_value("CCOC(=O)c1nn2c(=O)[nH]c3cc(Cl)c(-n4ccc(C=O)c4)cc3c2c1C(=O)OCC")
17

[I] CCOC(=O)c1nn2c(=O)[nH]c3cc(Cl)c([N+](=O)[O-])cc3c2c1C(=O)OCC
[II] CCNC(=O)Nc1cc2c(cc1Cl)[nH]c(=O)n1nc(C(=O)OCC)c(C(=O)OCC)c21
Qu. Which entry shows the lesser value of Activity here, I or II ? Your choice should be expressed through its label.
Ans. I
(I: 0%, II: 13%)

----------
Species on record: Rattus norvegicus
Experiment: Displacement of [3H]AMPA from AMPA receptor in rat cortical membrane at 100 uM
Format: cell membranes
endpoint: Activity (%)

>>> measured_value("CCOC(=O)c1nn2c(=O)[nH]c3cc(Cl)c([N+](=O)[O-])cc3c2c1[N+](=O)[O-]")
45
>>> measured_value("CCOC(=O)c1nn2c(=O)[nH]c3cc(Cl)c(NC(=O)Nc4ccccc4)cc3c2c1C(=O)OCC")
20

[a] CCOC(=O)c1cccc(NC(=O)Nc2cc3c(cc2Cl)[nH]c(=O)n2nc(C(=O)OCC)c(C(=O)OCC)c32)c1
[b] CCOC(=O)c1nn2c(=O)[nH]c3cc(Cl)c(NC(=O)NCc4ccccc4)cc3c2c1C(=O)OCC
Qu. Return label of the item with the larger Activity. Candidates: a , b . Your choice should be expressed through its label.
Ans. b
(b: 44%, a: 18%)

----------
Organism: Rattus norvegicus
Experiment: Ratio of Ki for rat NMDA receptor to Ki for rat AMPA receptor
endpoint: Ratio Ki

Would you please look over these solved cases?
>>> measured_value("O=C(O)c1ccccc1C(=O)Nc1cc2c(cc1Cl)[nH]c(=O)n1nc(C(=O)O)c(C(=O)O)c21")
20.7
>>> measured_value("O=C(NCc1ccccc1)Nc1cc2c(cc1Cl)[nH]c(=O)n1nc(C(=O)O)c(C(=O)O)c21")
44
>>> measured_value("CCOC(=O)c1nn2c(=O)[nH]c3cc(Cl)c(NC(=O)c4ccccc4C(=O)O)cc3c2c1C(=O)OCC")
12.8
>>> measured_value("O=C(O)CNC(=O)Nc1cc2c(cc1Cl)[nH]c(=O)n1nc(C(=O)O)c(C(=O)O)c21")
112
>>> measured_value("O=C(O)c1nn2c(=O)[nH]c3cc(Cl)c(-n4cccc4)cc3c2c1C(=O)O")
154
>>> measured_value("CCOC(=O)c1c(C(=O)O)nn2c(=O)[nH]c3cc(Cl)c([N+](=O)[O-])cc3c12")
5

[I] CCOC(=O)c1nn2c(=O)[nH]c3cc(Cl)c([N+](=O)[O-])cc3c2c1[N+](=O)[O-]
[II] O=C(Nc1cc2c(cc1Cl)[nH]c(=O)n1nc(C(=O)O)c(C(=O)O)c21)NC(Cc1ccccc1)C(=O)O (racemic)
Qu. Which entry shows the lesser value of Ratio Ki here, I or II ? Your choice should be expressed through its label.
Ans. I
(I: 0.4, II: 129)

[1] CCNC(=O)Nc1cc2c(cc1Cl)[nH]c(=O)n1nc(C(=O)O)c(C(=O)O)c21
[2] O=C(O)c1nn2c(=O)[nH]c3cc(Cl)c([N+](=O)[O-])cc3c2c1C(=O)O
[3] CCOC(=O)CCCNC(=O)Nc1cc2c(cc1Cl)[nH]c(=O)n1nc(C(=O)OCC)c(C(=O)OCC)c21
[4] CCOC(=O)c1nn2c(=O)[nH]c3cc(Cl)c(NC(=O)NCCc4ccccc4)cc3c2c1C(=O)OCC
Qu. Endpoint returns the given molecules ordered by ascending Ratio Ki. API: response body holds the labels in the requested order.
Ans. 4, 2, 3, 1

[A] O=C(O)c1nn2c(=O)[nH]c3cc(Cl)c([N+](=O)[O-])cc3c2c1[N+](=O)[O-]
[B] O=C(Nc1cccc(C(=O)O)c1)Nc1cc2c(cc1Cl)[nH]c(=O)n1nc(C(=O)O)c(C(=O)O)c21
Qu. Return label of the item with the larger Ratio Ki. Candidates: A , B . Your choice should be expressed through its label.
Ans. B
(B: 83, A: 1.7)

[A] O=C(O)c1nn2c(=O)[nH]c3cc(Cl)c([N+](=O)[O-])cc3c2c1Cl
[B] O=C(Nc1ccccc1)Nc1cc2c(cc1Cl)[nH]c(=O)n1nc(C(=O)O)c(C(=O)O)c21
Qu. Which entry shows the lesser value of Ratio Ki here, A or B ? Your choice should be expressed through its label.
Ans. A
(A: 1.9, B: 83.5)

[1] O=C(Nc1ccc(C(=O)O)cc1)Nc1cc2c(cc1Cl)[nH]c(=O)n1nc(C(=O)O)c(C(=O)O)c21
[2] O=C(O)CCNC(=O)Nc1cc2c(cc1Cl)[nH]c(=O)n1nc(C(=O)O)c(C(=O)O)c21
Qu. Return label of the item with the larger Ratio Ki. Candidates: 1 , 2 . Your choice should be expressed through its label.
Ans. 2

----------
Assay: Displacement of [3H]AMPA from AMPA receptor in rat cortical membrane
Format: cell membranes
pKi: −log10 of the molar value.
endpoint: pKi

Would you please look over these solved cases?
>>> measured_value("CCOC(=O)c1nn2c(=O)[nH]c3cc(Cl)c(-n4cnnc4)cc3c2c1C(=O)OCC")
5.92
>>> measured_value("O=C(NCc1ccccc1)Nc1cc2c(cc1Cl)[nH]c(=O)n1nc(C(=O)O)c(C(=O)O)c21")
6.43
>>> measured_value("O=C(Nc1cc2c(cc1Cl)[nH]c(=O)n1nc(C(=O)O)c(C(=O)O)c21)NC(Cc1ccccc1)C(=O)O (racemic)")
6.33
>>> measured_value("CCOC(=O)CNC(=O)Nc1cc2c(cc1Cl)[nH]c(=O)n1nc(C(=O)OCC)c(C(=O)OCC)c21")
5.05
>>> measured_value("CCOC(=O)c1nn2c(=O)[nH]c3cc(Cl)c([N+](=O)[O-])cc3c2c1Cl")
4.20

[1] CCOC(=O)c1nn2c(=O)[nH]c3cc(Cl)c(-n4ccc(C=O)c4)cc3c2c1C(=O)OCC
[2] CCOC(=O)c1c(C(=O)O)nn2c(=O)[nH]c3cc(Cl)c([N+](=O)[O-])cc3c12
Qu. Return label of the item with the larger pKi. Candidates: 1 , 2 . Your choice should be expressed through its label.
Ans. 2
(2: 6.03, 1: 4.80)

[A] CCOC(=O)CCNC(=O)Nc1cc2c(cc1Cl)[nH]c(=O)n1nc(C(=O)OCC)c(C(=O)OCC)c21
[B] O=C(Nc1ccc(C(=O)O)cc1)Nc1cc2c(cc1Cl)[nH]c(=O)n1nc(C(=O)O)c(C(=O)O)c21
[C] O=C(O)CCNC(=O)Nc1cc2c(cc1Cl)[nH]c(=O)n1nc(C(=O)O)c(C(=O)O)c21
Qu. Endpoint returns the given compounds ordered by ascending pKi. API: response body holds the labels in the requested order.
Ans. A, B, C

[1] O=C(O)c1nn2c(=O)[nH]c3cc(Cl)c([N+](=O)[O-])cc3c2c1[N+](=O)[O-]
[2] O=C(O)c1ccccc1C(=O)Nc1cc2c(cc1Cl)[nH]c(=O)n1nc(C(=O)O)c(C(=O)O)c21
[3] CCOC(=O)c1nn2c(=O)[nH]c3cc(Cl)c(-n4cccc4)cc3c2c1C(=O)OCC
Qu. Endpoint returns the given compounds ordered by ascending pKi. API: response body holds the labels in the requested order.
Ans. 3, 1, 2
(3: 4.32, 1: 4.92, 2: 5.89)

[A] O=C(O)c1cc2c3cc(-n4cnnc4)c(Cl)cc3[nH]c(=O)n2n1
[B] CCNC(=O)Nc1cc2c(cc1Cl)[nH]c(=O)n1nc(C(=O)O)c(C(=O)O)c21
[C] CCNC(=O)Nc1cc2c(cc1Cl)[nH]c(=O)n1nc(C(=O)OCC)c(C(=O)OCC)c21
Qu. Endpoint returns the given compounds ordered by ascending pKi. API: response body holds the labels in the requested order.
Ans. C, B, A
(C: 4.57, B: 6.25, A: 6.85)

[A] O=C(O)c1nn2c(=O)[nH]c3cc(Cl)c(-n4cccc4)cc3c2c1C(=O)O
[B] O=C(Nc1cccc(C(=O)O)c1)Nc1cc2c(cc1Cl)[nH]c(=O)n1nc(C(=O)O)c(C(=O)O)c21
Qu. Which entry shows the lesser value of pKi here, A or B ? Your choice should be expressed through its label.
Ans. B

Ref: ChEMBL document CHEMBL1144017
